ASSAY METHOD TEXT: Metabolic stability of JP-1366 in mouse hepatocytes
Assay type: in vitro ADME
ASSAY SETUP: mouse, cryopreserved mouse hepatocytes
Experimental: According to the manufacturer’s protocol, cryopreserved human, dog, monkey, mouse, and rat hepatocytes were purified and recovered. […] The metabolic reaction in each sample well was quenched by adding 120 μL of ice-cold acetonitrile. Log-transformed relative responses of JP-1366 were plotted against incubation time, thereby obtaining the elimination slope (k) from the linear regression analysis. […]
REPORTED PROPERTY: half-life at 1 µM (min)
Reply with just the number (in min).

Please look up its half-life at 1 µM: `Cc1cccc(C)c1CNc1cc(C(=O)N2CCC2)cn2c(C)c(C)nc12`
59.2
